- TEST SYSTEM: Lp-PLA2 in rabbit serum (Oryctolagus cuniculus, UniProt G1SE06)
- Construct: from tissue; host or cells: rabbit serum
- Sequence (G1SE06 22-423): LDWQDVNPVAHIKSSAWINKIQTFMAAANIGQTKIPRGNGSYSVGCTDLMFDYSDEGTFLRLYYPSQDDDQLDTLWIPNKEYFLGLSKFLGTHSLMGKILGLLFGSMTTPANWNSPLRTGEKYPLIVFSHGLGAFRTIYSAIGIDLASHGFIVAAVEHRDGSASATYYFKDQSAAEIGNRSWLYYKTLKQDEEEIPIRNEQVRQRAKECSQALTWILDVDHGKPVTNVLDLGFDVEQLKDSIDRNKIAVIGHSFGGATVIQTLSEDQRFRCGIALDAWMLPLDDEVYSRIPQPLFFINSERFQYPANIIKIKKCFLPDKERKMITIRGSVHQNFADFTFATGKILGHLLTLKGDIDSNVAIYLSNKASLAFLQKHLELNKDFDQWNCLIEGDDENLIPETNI
- ASSAY OVERVIEW: In vitro inhibitory activity towards the enzyme Lp-PLA2 in rabbit serum, [3H]PAF substrate
- Format: biochemical
- CONDITION SET: 1 μM; rabbit serum
OBSERVABLE: inhibition at 1 µM (%)

// below: answered compounds
COMPOUND	UNIT TAG	ASSAY RESULT
CCCC1NC(Cn2c(SCc3ccc(F)cc3)nc(=O)c3c2CCC3)=NO1 (stereo not shown)	%	16.2
CCn1c(Cn2c(SCc3ccc(F)cc3)nc(=O)c3c2CCC3)nnc1-c1ccc(-c2ccc(C(F)(F)F)cc2)cc1	%	21

[a] O=c1nc(SCc2ccc(F)cc2)n(CC2=NOC(c3ccc(-c4ccc(C(F)(F)F)cc4)cc3)N2CCN2CCCCC2)c2c1CCC2 (stereo not shown)
[b] CN(C)Cc1cnc(Cn2c(SCc3ccc(F)cc3)nc(=O)c3c2CCC3)n1Cc1ccc(-c2ccc(C(F)(F)F)cc2)cc1
Which one would you say has the larger inhibition at 1 µM value: a , or b ? Please reply using the label of the selected record.
b
